This section presents compounds with their documented Percent Control values.
System: FLT3(R834Q);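 note: KINOMEscan scanMAX binding as percent activity remaining versus control; lower means stronger binding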
Cond: Compound Concentration (nM):1000
Reply with a number, then the unit it belongs to.

> print(dat)
                                   compound  result
1  CCn1c(-c2nonc2N)nc2c(C#CC(C)(C)O)nc(OCCNC)cc21.Cl [GSK949675]     78%
2  COC(=O)Nc1nc2ccc(Oc3ccc(NC(=O)Nc4cc(C(F)(F)F)ccc4F)cc3)cc2s1.Cl [GW693917A]     11%

*Q* GET /values?readout=Percent Control&item= CCS(=O)(=O)c1ccc(OC)c(Nc2ncc(-c3cccc(OC)c3)o2)c1 [GW580509X]
*A* 18%

*Q* What does the data say about its Percent Control? Entry: CN1CCN(C(=O)c2ccc(NC(=O)Nc3ccc(N(C)c4ccnc(Nc5ccc(CS(C)(=O)=O)cc5)n4)cc3)cc2)CC1.Cl [GW830263A]
*A* 0%

*Q* I have this compound here, Cl.O=C(Nc1ccc(Oc2ccc3[nH]c(NC(=O)c4ccco4)nc3c2)cc1)Nc1cc(C(F)(F)F)ccc1F [GW683134A] , and I need its recorded Percent Control.
*A* 5.6%

*Q* GET /values?readout=Percent Control&item= NS(=O)(=O)c1ccc(N/N=C2\C(=O)Nc3ccc(C(=O)NCCc4c[nH]cn4)cc32)cc1 [GW300660X]
*A* 45%

*Q* Reported Percent Control, compound COc1cccc(-c2c[nH]c3c(N/N=C/c4ccncc4)ncnc23)c1 [GW814408X] : ____
*A* 19%

*Q* What value of Percent Control has been reported for the following compound? Cl.O=C(O[C@H]1CN[C@H](C#Cc2cc3ncnc(Nc4ccc5c(cnn5Cc5ccccc5)c4)c3s2)C1)N1CCOCC1 [GSK200398A]
*A* 92%

*Q* If you can, please state the reported Percent Control value of COc1ccccc1-c1cc(/C=C2\C(=O)Nc3ncc(Br)cc32)cc(Br)c1O [GW442130X] .
*A* 87%

*Q* Could you share which Percent Control value was measured for C[C@@H](Oc1cc(-n2cnc3ccc(OC4CCN(C)CC4)cc32)sc1C(N)=O)c1ccccc1Cl [GSK579289A] ?
*A* 18%
